Target: CHEK1 (human) (UniProt O14757)
Sequence (O14757 whole entry, looked up): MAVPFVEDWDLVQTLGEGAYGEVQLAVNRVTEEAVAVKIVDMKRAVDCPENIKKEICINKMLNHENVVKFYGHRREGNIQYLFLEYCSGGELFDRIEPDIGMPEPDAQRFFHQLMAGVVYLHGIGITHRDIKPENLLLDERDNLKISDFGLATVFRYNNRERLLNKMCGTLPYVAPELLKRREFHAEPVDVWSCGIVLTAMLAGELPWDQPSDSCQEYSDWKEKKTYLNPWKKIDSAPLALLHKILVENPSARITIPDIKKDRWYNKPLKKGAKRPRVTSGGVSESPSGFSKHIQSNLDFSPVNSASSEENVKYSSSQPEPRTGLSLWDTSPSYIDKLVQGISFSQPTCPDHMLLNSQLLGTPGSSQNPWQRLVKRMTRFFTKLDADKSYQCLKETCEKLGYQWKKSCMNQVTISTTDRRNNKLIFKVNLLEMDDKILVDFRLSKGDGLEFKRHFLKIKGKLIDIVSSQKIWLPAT
Assay: radiometric filter-binding kinase assay
Conditions: compound 1.0 µM
observed_property: residual activity (%)
State just the number; it will be interpreted in %.

The compound listed as O=c1c(O)c(-c2ccc(O)c(O)c2)oc2cc(O)c(O)c(O)c12 has a reported residual activity of 92

The compound listed as CN(C)C/C=C/C(=O)Nc1cccc(C(=O)Nc2ccc(Nc3nccc(-c4cccnc4)n3)cc2)c1 has a reported residual activity of 88

The compound listed as NS(=O)(=O)OC[C@@H]1C[C@@H](n2ccc3c(N[C@H]4CCc5ccccc54)ncnc32)C[C@@H]1O has a reported residual activity of 91

The compound listed as c1ccc2c(-c3cnn4cc(-c5ccc(N6CCNCC6)cc5)cnc34)ccnc2c1 has a reported residual activity of 109

The compound listed as CN1C(=O)[C@@H](Cc2c[nH]c3ccccc23)NC1=S has a reported residual activity of 109

The compound listed as Oc1ccc2ccccc2c1SSc1c(O)ccc2ccccc12 has a reported residual activity of 89

The compound listed as C=CC(=O)N1CCC[C@@H](n2nc(-c3ccc(Oc4ccccc4)cc3)c3c(N)ncnc32)C1 has a reported residual activity of 93
